# Test system: Human alphaherpesvirus 2
# measurement notes: Relative potency to that of YAGAVVNDL against Herpes Simplex Virus type 2 ribonucleotide reductase
Non-standard residues stand in square brackets, D forms with d. Residues, ends and D or L forms follow the SMILES beside them. *: point of attachment. Dibenzylacetyl = O=C(C(Cc1ccccc1)Cc1ccccc1)*; NBnTyr = O=C(O)[C@H](Cc1ccc(O)cc1)NCc1ccccc1; tBuAla = CC(C)(C)C[C@H](N)C(=O)O; Cha = N[C@@H](CC1CCCCC1)C(=O)O; Nva = CCC[C@H](N)C(=O)O; NHBn = c1ccc(CN*)cc1
Catalogue of Relative potency values
Field format: numeric only.

# count of solved cases: 5
compound	Relative potency
CC(C)[C@H](NC(=O)C(Cc1ccccc1)Cc1ccccc1)C(=O)N[C@H](C(=O)N[C@@H](CC(N)=O)C(=O)N[C@@H](CC(=O)O)C(=O)N[C@@H](CC(C)(C)C)C(=O)O)C(C)C (Dibenzylacetyl-VVND[tBuAla]-OH)	120
CC(C)C[C@H](NC(=O)[C@H](CC(=O)O)NC(=O)[C@H](CC(N)=O)NC(=O)[C@@H](NC(=O)[C@@H](NC(=O)C(C)C)C(C)C)C(C)C)C(=O)O	0.17
CC(C)C[C@H](NC(=O)[C@H](CC(=O)O)NC(=O)[C@H](CC(=O)NCc1ccccc1)NC(=O)[C@@H](NC(=O)[C@@H](NC(=O)C(Cc1ccccc1)Cc1ccccc1)C(C)C)C(C)C)C(=O)O (Dibenzylacetyl-VVD(NHBn)DL-OH)	55
CC(C)[C@H](NC(=O)C(Cc1ccccc1)Cc1ccccc1)C(=O)N[C@H](C(=O)N[C@@H](CC(=O)NCc1ccccc1)C(=O)N[C@@H](CC(=O)O)C(=O)N[C@@H](CC(C)(C)C)C(=O)O)C(C)C (Dibenzylacetyl-VVD(NHBn)D[tBuAla]-OH)	50
CC(C)C[C@H](NC(=O)[C@H](CC(=O)O)NC(=O)[C@H](CC(N)=O)NC(=O)[C@@H](NC(=O)[C@@H](NC(=O)Cc1ccc2ccccc2c1)C(C)C)C(C)C)C(=O)O	6

Assign Relative potency to the following record: CC(C)[C@H](NC(=O)[C@@H](NC(=O)[C@@H](N)Cc1ccc(O)cc1)C(C)C)C(=O)N[C@@H](CC(N)=O)C(=O)N[C@@H](CC(=O)O)C(=O)N[C@@H](CC(C)(C)C)C(=O)O (H-YVVND[tBuAla]-OH) 3.3

Assign Relative potency to the following record: CC(C)[C@H](NC(=O)[C@H](Cc1ccc(O)cc1)NCc1ccccc1)C(=O)N[C@H](C(=O)N[C@@H](CC(N)=O)C(=O)N[C@@H](CC(=O)O)C(=O)N[C@@H](CC(C)(C)C)C(=O)O)C(C)C (H-[NBnTyr]VVND[tBuAla]-OH) 23

Assign Relative potency to the following record: CCC[C@H](NC(=O)[C@H](CC(=O)O)NC(=O)[C@H](CC(N)=O)NC(=O)[C@@H](NC(=O)[C@@H](NC(=O)[C@@H](N)Cc1ccc(O)cc1)C(C)C)C(C)C)C(=O)O (H-YVVND[Nva]-OH) 0.16

Assign Relative potency to the following record: CC(C)[C@H](NC(=O)[C@@H](NC(=O)[C@@H](N)Cc1ccc(O)cc1)C(C)C)C(=O)N[C@@H](CC(N)=O)C(=O)N[C@@H](CC(=O)O)C(=O)N[C@@H](CC1CCCCC1)C(=O)O (H-YVVND[Cha]-OH) 0.29
